Origin of measurements: ChEMBL document CHEMBL4396879

target: Muscarinic acetylcholine receptor M2 (Homo sapiens, UniProt P08172); assay: Competitive displacement of [3H]-NMS from human muscarinic M2 receptor expressed in CHO-K9 cells using 0.2 nM [3H]-NMS after 3 hrs by microbeta2 scintillation counting method; format: cell-based
Sequence (P08172 whole entry): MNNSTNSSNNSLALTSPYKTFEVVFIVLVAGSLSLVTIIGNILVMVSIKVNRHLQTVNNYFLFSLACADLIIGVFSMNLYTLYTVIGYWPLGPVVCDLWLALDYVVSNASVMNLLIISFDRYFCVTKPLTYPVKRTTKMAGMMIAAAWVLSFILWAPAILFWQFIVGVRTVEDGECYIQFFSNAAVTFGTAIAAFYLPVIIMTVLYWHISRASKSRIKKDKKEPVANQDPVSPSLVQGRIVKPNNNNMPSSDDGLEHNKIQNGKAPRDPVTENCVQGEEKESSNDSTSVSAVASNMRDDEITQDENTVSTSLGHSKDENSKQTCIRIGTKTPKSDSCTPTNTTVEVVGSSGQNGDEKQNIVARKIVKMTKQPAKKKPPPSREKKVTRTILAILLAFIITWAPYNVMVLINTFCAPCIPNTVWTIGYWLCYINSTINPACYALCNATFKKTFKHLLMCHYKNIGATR
Parameter measured: Ki (nM)

1: CC(=O)N[C@@H](CCCCN)C(=O)N[C@@H](C)C(=O)N[C@@H](CCCNC(=N)N)C(=O)NCCN1CCN(CCCCC2CCN(CC(=O)N3c4ccccc4NC(=O)c4ccccc43)CC2)CC1
2: CC(=O)N[C@@H](CCCCN)C(=O)N[C@@H](CCCNC(=N)N)C(=O)NCCCCC1CCN(CC(=O)N2c3ccccc3NC(=O)c3ccccc32)CC1
(Q) Compare Ki: is it lower for 1 or for 2 ? Label of pick, please.
(A) 1
(1: 0.0631 nM, 2: 1.07 nM)
